Where do these numbers come from? They come from the Human Domainome abundance scans (Beltran et al. 2025).

B1: Formin-binding protein 4, residues 200 to 261; numbered along this chain, Q8N3X1 (parent)
chain: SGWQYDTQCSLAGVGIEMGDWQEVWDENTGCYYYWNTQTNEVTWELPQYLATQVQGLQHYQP

# Variants of: B1
# EXPERIMENT: abundance fitness (aPCA) (normalised: wild type 0, dead -1); higher = more abundant; growth selection in yeast, the domain comes from the species named
# APPLIED CONDITIONS: Homo sapiens
Label 1 (yes) when abundance fitness is at or above -0.2; otherwise label 0 (no).

In [3]: df
Out[3]:
    mutation_code    class
 0            Q4C  1 (yes)
 1           M18C   0 (no)
 2           Q55W  1 (yes)
 3           E27S  1 (yes)
 4           T43F   0 (no)
 5           M18E   0 (no)
 6           L57H  1 (yes)
 7           Q58C   0 (no)
 8            Y5E   0 (no)
 9           N36V   0 (no)
10           E45V   0 (no)
11           E23V   0 (no)
12           Q55K  1 (yes)
13           V42I  1 (yes)
14           Q48A  1 (yes)
